system: MALME-3M melanoma; assay: NCI tumour cell line growth inhibition, 48 h

SMI	TGI
CN(C=O)/C=C/c1cc(O)ccc1O	> 63.3 µM
O=C1c2ccccc2C(=O)c2nc3ccc(Cl)cc3cc21	> 100 µM
CCCCCCCCCCCCOP(N)(=O)OCCCCCCCCCCCC	> 100 µM
Cc1cc([N+](=O)[O-])c(C)c(Br)c1C	> 100 µM
Cc1cc2cc3c(cc2c(-c2ccc(N)cc2)n1)OCO3	> 100 µM

----------
system: A549 NSCLC; assay: NCI tumour cell line growth inhibition, 48 h
Listed below: TGI values for each entry.
MEASURED ENDPOINT: TGI

MOLECULE	MEASURED ENDPOINT	OBSERVED RESULT
Cc1ccc(S(=O)(=O)N(CC(O)COc2ccccc2)c2ccc(F)cc2F)cc1 (configuration not stated)	TGI	26.9 µM
CCCCCCCCCCCCCc1nn[nH]n1	TGI	40.7 µM
CSc1nc(NC(C)C)c2c(n1)Sc1nc3ccccc3n1C2O (configuration not stated)	TGI	> 100 µM
Cc1ccc(S(=O)(=O)n2cc(C#N)c(C#N)c2)cc1	TGI	78.9 µM
CN(C)c1ccc(/C=C2\N=C(c3ccccc3)N(c3ccc4c(c3)Sc3cc(N5C(=O)/C(=C/c6ccc(N(C)C)cc6)N=C5c5ccccc5)ccc3N4)C2=O)cc1	TGI	52.2 µM
CNC(=O)CN(CC(N)=O)C(N)=O	TGI	> 100 µM
O=c1cc(NCc2ccncc2)[nH]c(=O)[nH]1	TGI	> 100 µM
CS(=O)(=O)NC12CCC(c3ccccc31)c1ccccc12	TGI	> 100 µM
CC(NC(=O)c1ccccc1)(C(=O)O)C(=O)O	TGI	> 100 µM
CSC1=NCC2(S1)c1ccccc1N(C(=O)OC(C)(C)C)C2N1CCCCC1 (configuration not stated)	TGI	> 100 µM
Cc1cc(Cl)ccc1Nc1nc(C(F)(F)F)ccc1C(=O)N1CCN(c2cccc(Cl)c2)CC1	TGI	> 100 µM
Cc1c(C(=O)CSc2nc3ccccc3[nH]2)c(=O)n(-c2ccccc2)n1C	TGI	> 100 µM

----------
tested on: SK-MEL-28 melanoma; assay: NCI tumour cell line growth inhibition, 48 h
Please use yes (1) whenever TGI is not below 3 µM, and no (0) whenever it is.

MOLECULE	ANSWER LABEL
CC(C)C(=O)Oc1cc2c(=O)oc3c(OC(=O)C(C)C)c(OC(=O)C(C)C)cc4c(=O)oc(c1OC(=O)C(C)C)c2c34	yes (1)
COc1ccc2nc3n(c2c1)CCc1cc(OC)c(OC)cc1-3	yes (1)
C/C(=N\Nc1nc2ccccc2[nH]1)c1cc2ccccc2cn1	no (0)
CCOc1cc(-c2ccc[nH]2)[nH]c1/C=C1\N=C(C)C(C(=O)OC)=C1C	no (0)
CCOC(=O)[C@H]1Nc2ccccc2C2c3ccccc3CC21 (some centres undefined)	yes (1)
c1ccc(-c2nnn(CCN3CCCCC3)n2)cc1	yes (1)
CCN(CC)CCN(C(=O)C(C)(C)C)c1ccccc1N	yes (1)
C[C@@H]1C[C@]2(C[C@@H](C)C3[C@@H](CC4(C)[C@@H]5CCC6C(C)(C)OC(=O)C=C[C@]67C[C@@]5(CC[C@]34C)OO7)O2)OC1=O (some centres undefined)	yes (1)
CO[C@H]1C[C@H](O[C@H]2CC[C@]3(C=O)[C@H]4CC[C@]5(C)[C@@H](C6=CC(=O)OC6)CC[C@]5(O)[C@@H]4CC[C@]3(O)C2)O[C@H](C)[C@H]1O	yes (1)
CC1OC(OC2CCC3(C=O)C4CCC5(C)C(C6=CC(=O)OC6)CCC5(O)C4CCC3(O)C2)C(O)C(O)C1O (centres undefined)	no (0)
S=C(NCc1ccccc1)N/N=C/c1ccccn1	yes (1)
O=c1cc(NCc2ccncc2)[nH]c(=O)[nH]1	yes (1)
CC1=NN(C(=O)c2ccccc2O)C(=O)/C1=C/c1cccc([N+](=O)[O-])c1	yes (1)
CCOP(=O)(Nc1ccc2oc(=O)c3ccccc3c2c1)OCC	yes (1)
O=c1c2ccccc2oc2ccc(OCCCCCCN3CCCCCC3)cc12	yes (1)
Nc1ccc(S(=O)(=O)Nc2cnc3c(Cl)cccc3n2)cc1	yes (1)
CC1(C)CC[C@]2(C(N)=O)CC[C@]3(C)C(=CC[C@@H]4[C@@]5(C)C/C(=C/c6ccncc6)C(=O)C(C)(C)[C@@H]5CC[C@]43C)[C@@H]2C1	yes (1)
CSc1ccc(/C=C2\N=C(c3ccccc3)N(/N=C/c3cc4cc(C)ccc4nc3Cl)C2=O)cc1	yes (1)
CS(=O)(=O)NC12CCC(c3ccccc31)c1ccccc12	yes (1)

----------
tested on: U251 CNS; assay: NCI tumour cell line growth inhibition, 48 h
MEASURED ENDPOINT: TGI

MOLECULE	TARGET	OBSERVED RESULT
Cc1ccc(S(=O)(=O)n2cc(C#N)c(C#N)c2)cc1	U251 CNS	> 100 µM
CCN(CC)CCN(C(=O)C(C)(C)C)c1ccccc1N	U251 CNS	> 100 µM
CCCCCCCCCCCCOP(N)(=O)OCCCCCCCCCCCC	U251 CNS	> 100 µM
O=C(Nc1cccc(NC(=O)c2cc(=O)c3ccccc3o2)n1)c1cc(=O)c2ccccc2o1	U251 CNS	> 100 µM
CCOP(=O)(OCC)C(C)(CC)NC(=O)C(C(F)(F)F)C(F)(F)F (configuration not stated)	U251 CNS	> 100 µM
CN(C=O)/C=C/c1cc(O)ccc1O	U251 CNS	> 69.7 µM
CCOC(=O)C(=O)C(=O)NN(C)C1=NCCN1	U251 CNS	> 100 µM
O=c1c2ccccc2oc2ccc(OCCCCCCN3CCCCCC3)cc12	U251 CNS	11.5 µM
CN1CCc2c1nc(-c1ccc([N+](=O)[O-])cc1)c1c2N(C)CC1	U251 CNS	> 100 µM
CCOC(=O)c1cn(C)c(=S)n2c1nc1ccccc12	U251 CNS	> 100 µM
CC(=O)CC(=O)CCC(=O)O	U251 CNS	> 100 µM
S=C(NCc1ccccc1)N/N=C/c1ccccn1	U251 CNS	23.9 µM

----------
The following compounds are listed with their measured TGI values.
tested on: RXF 393 renal; experiment: NCI tumour cell line growth inhibition, 48 h

COMPOUND	TGI
Cc1ccc(C(C)C)cc1NC(=O)Nc1ccc([N+](=O)[O-])cc1	13.5 µM
CC(=O)N(Cc1ccccc1)c1ccccc1I(=O)=O	> 100 µM
CC(=O)CC(=O)CCC(=O)O	> 100 µM
O=C(c1ccc(Cl)cc1)C1OC12C(=O)Nc1ccccc12 (configuration not stated)	29.6 µM
NC1=NCC(CN2CCCC2)O1 (configuration not stated)	> 100 µM
O=C1CN(/N=C/c2ccc(-c3ccc(F)cc3)o2)C(=O)N1	> 100 µM
COC(=O)c1c(C)nc(C)c(NO)c1-c1ccccc1C(F)(F)F	32 µM
CCCCCCCCCCCCOP(N)(=O)OCCCCCCCCCCCC	> 100 µM
COc1cccc(C2NC(=S)NC(C)=C2C(=O)Nc2ccc(Cl)c(Cl)c2)c1 (configuration not stated)	22.3 µM
CCOC(=O)c1cnccc1CC1(C#N)c2ccccc2C=CN1C(=O)c1ccccc1 (configuration not stated)	> 100 µM
Cc1cc(Cl)cc2c1NC(=O)C2=O (tested in a mixture with another compound)	> 100 µM
O=S(=O)(c1ccc(O)c(C=Nc2ccc(Cl)cc2)c1)c1ccc(O)c(C=Nc2ccc(Cl)cc2)c1	> 100 µM
Cc1nc(N)nc2ccccc12	> 100 µM
O=C(/C=C/c1cccs1)c1ccccc1Cl	23.7 µM
Cc1cc(C(O)CN(C)C)cc2c1ccc1cc(C(C)C)ccc12 (configuration not stated)	3.36 µM
Oc1[nH]c2cc(Cl)ccc2c1/C=c1/ccc2c(c1)N=C(c1cc(F)cc(F)c1)N=2	6.27 µM
CCN(CC)c1nc(N(C)C)c2ccccc2n1	76.6 µM
CCOC(=O)C1(C(F)(F)F)N=C(CC)OC(N2CCOCC2)=N1 (configuration not stated)	> 100 µM
COc1cccc(/C=C/C(=O)c2cc3c(N)c(C(=O)Nc4cccc5ccccc45)sc3nc2C)c1	1.9 µM
CC1(C)CC[C@]2(C(N)=O)CC[C@]3(C)C(=CC[C@@H]4[C@@]5(C)C/C(=C/c6ccncc6)C(=O)C(C)(C)[C@@H]5CC[C@]43C)[C@@H]2C1	3.05 µM
O=c1cc(-c2ccccn2)[nH]c2ccc(Cl)cc12	> 100 µM
S=c1nc(-c2ccnc(-c3nc(=S)[nH][nH]3)c2)[nH][nH]1	> 100 µM

----------
system: UO-31 renal; test: NCI tumour cell line growth inhibition, 48 h
In this section, each of the compounds is paired with its reported TGI.

COMPOUND	TARGET	TGI
Nc1ccc2c(c1)c(N)nn2C(=O)Nc1ccc(Cc2ccccc2)cc1	UO-31 renal	32.6 µM
COC1(OC)c2no[n+]([O-])c2C(OC)(OC)c2c1no[n+]2[O-]	UO-31 renal	> 100 µM
CSc1ccc(/C=C2\N=C(c3ccccc3)N(/N=C/c3cc4cc(C)ccc4nc3Cl)C2=O)cc1	UO-31 renal	33.4 µM
Cc1nc(-n2nc(-c3ccccc3)cc2-c2ccccc2)sc1C(/C=C/c1ccc([N+](=O)[O-])cc1)=N/NC(=O)c1ccncc1	UO-31 renal	90.4 µM
CSC1=NCC2(S1)c1ccccc1N(C(=O)OC(C)(C)C)C2N1CCCCC1 (stereo unspecified)	UO-31 renal	> 100 µM
COC(=O)CCCC(=O)NC1=C(NCc2ccccc2)C(=O)c2ccccc2C1=O	UO-31 renal	> 100 µM
CC(=O)OC1CC2C(=O)C(=O)C1(C)C2(C)C (stereo unspecified)	UO-31 renal	> 100 µM
CCOC(=O)C(NC(=O)c1[nH]cnc1/N=N/N(C)C)C(C)C (stereo unspecified)	UO-31 renal	> 100 µM
CN1C(=O)C(O)CC1c1cccc(C(F)(F)F)c1 (stereo unspecified)	UO-31 renal	> 100 µM
COc1cc2cc3c4c(cc(OC)c(OC)c4c2cc1OC)CCN3C(=O)CCC(=O)NCCCN(C)C	UO-31 renal	> 100 µM
COC(=O)/C(=N\NC(N)=S)C(C#N)c1ccccc1 (stereo unspecified)	UO-31 renal	> 100 µM
